Consider the following molecules; for each one, report its inhibition.
system.tested: Nuclear receptor subfamily 5 group A member 2 (Homo sapiens) (UniProt O00482)
Sequence (O00482 whole entry, looked up): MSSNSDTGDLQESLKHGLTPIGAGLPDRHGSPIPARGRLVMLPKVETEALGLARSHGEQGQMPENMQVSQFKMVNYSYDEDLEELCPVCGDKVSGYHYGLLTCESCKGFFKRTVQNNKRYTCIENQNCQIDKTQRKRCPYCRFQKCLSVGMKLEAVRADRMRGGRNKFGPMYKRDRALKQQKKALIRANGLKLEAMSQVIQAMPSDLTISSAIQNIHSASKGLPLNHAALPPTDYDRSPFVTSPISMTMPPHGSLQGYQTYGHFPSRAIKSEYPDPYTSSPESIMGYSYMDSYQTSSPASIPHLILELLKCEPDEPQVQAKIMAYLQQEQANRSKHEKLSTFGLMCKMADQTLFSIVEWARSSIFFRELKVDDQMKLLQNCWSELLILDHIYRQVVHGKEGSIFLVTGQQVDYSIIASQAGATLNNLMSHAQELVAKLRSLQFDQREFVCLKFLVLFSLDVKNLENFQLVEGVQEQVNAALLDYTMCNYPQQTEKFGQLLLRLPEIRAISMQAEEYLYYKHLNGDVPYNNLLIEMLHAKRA
test.protocol: LRH-1 (NR5A2) inverse agonists, retest, confirmation, cell-based, luminescence (AID 651613);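 also: HEK293T cells co-transfected with LRH-1 and StAR promoter luciferase reporter; 0% = vehicle wells and 100% = parental cells lacking receptor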
experimental.context: cell-based LRH-1 luciferase reporter, inverse agonism; at 3.6 µM; stronger effect = higher value
State the answer as a number, implicitly in %.

Tested on Nuclear receptor subfamily 5 group A member 2 (Homo sapiens) (UniProt O00482): Cc1cc(C(=O)CN2C(=O)c3ccccc3S2(=O)=O)c(C)n1CC1CCCO1 (stereo unspecified) . Observed inhibition: 81

Tested on Nuclear receptor subfamily 5 group A member 2 (Homo sapiens) (UniProt O00482): N#Cc1cc(Br)ccc1N=C1CCCN1c1ccccc1 . Observed inhibition: 44.5

Tested on Nuclear receptor subfamily 5 group A member 2 (Homo sapiens) (UniProt O00482): Cn1nccc1C(=O)NC1CCCc2c1cnn2-c1ccc(C(C)(C)C)cc1 (stereo unspecified) . Observed inhibition: 63.5

Tested on Nuclear receptor subfamily 5 group A member 2 (Homo sapiens) (UniProt O00482): COc1ccc(CNC(=O)c2cccc3c(-c4cnn(C)c4)coc23)cc1OC . Observed inhibition: 46.2

Tested on Nuclear receptor subfamily 5 group A member 2 (Homo sapiens) (UniProt O00482): Cc1ccc(NC(=O)COC(=O)C(NS(=O)(=O)c2ccc(Cl)cc2)C(C)O)c(Br)c1 (stereo unspecified) . Observed inhibition: 55.3

Tested on Nuclear receptor subfamily 5 group A member 2 (Homo sapiens) (UniProt O00482): CC#CC[N+](C)(C)CCCCCCCCCCCC . Observed inhibition: 65.2

Tested on Nuclear receptor subfamily 5 group A member 2 (Homo sapiens) (UniProt O00482): C/C(=N\NC(N)=S)C1(C)CCCCC1 . Observed inhibition: 57.1

Tested on Nuclear receptor subfamily 5 group A member 2 (Homo sapiens) (UniProt O00482): CS(=O)(=O)N1CCc2cc(-c3csc(NC(=O)Cc4cccs4)n3)ccc21 . Observed inhibition: 53.8

Tested on Nuclear receptor subfamily 5 group A member 2 (Homo sapiens) (UniProt O00482): Clc1ccc(Cn2ncc3c(NCc4ccccc4)ncnc32)cc1 . Observed inhibition: 59.4

Tested on Nuclear receptor subfamily 5 group A member 2 (Homo sapiens) (UniProt O00482): O=C(Nc1ccc(Br)cn1)c1ccc([N+](=O)[O-])o1 . Observed inhibition: 54.7

Tested on Nuclear receptor subfamily 5 group A member 2 (Homo sapiens) (UniProt O00482): COc1ccc(NC(=O)CSC2=C(C#N)C(c3ccco3)C3=C(CCCC3=O)N2)c(OC)c1 (stereo unspecified) . Observed inhibition: 55.5

###

System: transactivating tegument protein VP16 (Human herpesvirus 1), Gal4-VP16 luciferase reporter
test.protocol: VP16 transactivation inhibitors, counter-screen for SRC3 inhibitor project, cell-based, luminescence, high throughput (AID 588794)
experimental.context: mammalian cells, VP16-driven luciferase reporter luminescence; at 3.6 µM; stronger effect = higher value
Label scheme, based on inhibition: lower (below 10%), middle (10% to below 40%), upper (40% or more)

Class (by measured inhibition) for CCOC(=O)c1cc2c(=Cc3ccc(N(C)C)cc3)c3ccccc3n2[n+]1C
upper

Class (by measured inhibition) for COc1ccc(C(=O)C(CCC(CNC(C)(C)C)C(=O)c2ccc(OC)cc2)CNC(C)(C)C)cc1 (stereo unspecified)
lower

Class (by measured inhibition) for NC(=O)c1sc2nccc(Nc3ccccc3)c2c1N
upper

Class (by measured inhibition) for CC(=O)/C(N=Nc1ccc2c(c1)OCCO2)=C(\C)O
lower

Class (by measured inhibition) for COc1ccc(C2OC(=O)CC2C(=O)NCc2ccc(F)cc2)cc1OC (stereo unspecified)
lower

Class (by measured inhibition) for C=C1C(=O)O[C@H]2C[C@H]1[C@@H](OC(C)=O)C/C(C)=C/CC/C(C)=C\CC[C@]2(C)O
upper

Class (by measured inhibition) for COc1ccc(/C=C2\SC(=O)N(CCCC(=O)Nc3ccc(C(=O)O)cc3)C2=O)cc1
upper

Class (by measured inhibition) for COc1ccc(-c2n(Cc3ccccc3)c3ccccc3[n+]2Cc2ccccc2)cc1
upper

Class (by measured inhibition) for O=C(Nc1ccccc1C(=O)Nc1nnc(C(F)(F)F)s1)c1ccccc1Cl
middle

Class (by measured inhibition) for COc1ccccc1-n1cc([C@@H]2C[C@H]3CN(c4ccccc4)C(=O)[C@]34CCCN24)cn1
middle

Class (by measured inhibition) for Brc1ccc2c(c1)CN1CCCC1=N2
middle

Class (by measured inhibition) for COc1ccc2c(O)c(-c3c(C)cc(C)cc3C)c(=O)[nH]c2c1
lower

Class (by measured inhibition) for O=C(N/N=C(\c1ccccc1)c1ccccn1)c1ccccc1Cl
middle

Class (by measured inhibition) for COc1ccc(/C=C2\N=C(C(C)(C)C)OC2=O)c(OC)c1
middle

Class (by measured inhibition) for c1ccc(-c2ccc(-c3nc(-c4ccccn4)no3)cc2)cc1
middle

Class (by measured inhibition) for COc1ccc(-n2c(C)cc(C(=O)COc3ccc(C)nc3[N+](=O)[O-])c2C)cc1
middle

Class (by measured inhibition) for C#CCOCCOCCOCCNc1nc(N2CCN(C(=O)Cn3cc(CCCN=C(N)N)nn3)CC2)nc(N2CCN(C(=O)[C@H](C)n3cc(CCCN=C(N)N)nn3)CC2)n1
lower

Class (by measured inhibition) for Nc1nc(N)nc(-c2cc(O)ccc2O)n1
upper

Class (by measured inhibition) for COc1ccc(-c2c[n+]3c(n2-c2ccccc2)SCC3)cc1
middle

Class (by measured inhibition) for CC1CC(C)C(=NNC(N)=O)C(C(O)CC2CCC(=O)NC2=O)C1 (stereo unspecified)
middle

Class (by measured inhibition) for Fc1ccccc1-c1csc(=Nc2cccnc2)n1CCCn1ccnc1
middle

Class (by measured inhibition) for C=CCC1(CC=C)CCCN1C(=O)c1cc(COc2ccc(-n3cncn3)cc2)on1
middle

Class (by measured inhibition) for CCOc1ccc(-n2c(-c3ccccc3)c[n+]3c2CCCCC3)cc1
upper

Class (by measured inhibition) for CCN1C/C(=C/c2ccc(N3CCOCC3)cc2)C(=O)/C(=C/c2ccc(N3CCOCC3)cc2)C1
middle

Class (by measured inhibition) for COC(=O)c1cc2c(n1S(=O)(=O)c1ccc(C)cc1)C(=O)C(=O)c1[nH]cc(C(=O)OCc3ccccc3)c1-2
upper

Class (by measured inhibition) for CC(C)(O)C#Cc1ccc([C@@H]2C[C@H]3CN(c4ccccc4)C(=O)[C@]34CCCN24)s1
upper

Class (by measured inhibition) for COc1ccc(CN(Cc2cccn2C)S(=O)(=O)c2ccc(C)cc2)cc1
lower

Class (by measured inhibition) for COCC(C)NS(=O)(=O)c1ccc(C(=O)NC(Cc2ccccc2)c2ccccc2)cc1 (stereo unspecified)
lower

Class (by measured inhibition) for Cc1ccc(-n2c(-c3ccccc3)c[n+]3c2CCc2ccccc2-3)c(C)c1
upper

Class (by measured inhibition) for CC(C(=O)c1ccc(-c2ccccc2)cc1)[n+]1ccccc1 (stereo unspecified)
middle

Class (by measured inhibition) for CC(C)(C)S(=O)N1Cc2cc(C(=O)NCC(F)(F)F)nc(-c3cccc(-c4cccc(F)c4)c3)c2[C@@H]1CCO (stereo partly specified)
lower

Class (by measured inhibition) for Nc1nonc1-n1nnc(C(=O)N/N=C/c2cc(Br)ccc2O)c1CSC1=NCCS1
middle

Class (by measured inhibition) for CC1CCc2c(sc(NC(=O)CSc3ncn[nH]3)c2C#N)C1 (stereo unspecified)
upper

Class (by measured inhibition) for COc1ccc(-c2cn[nH]c2-c2ccc(OCc3ccc([N+](=O)[O-])cc3)cc2O)cc1
middle

Class (by measured inhibition) for Cc1ccc(S(=O)(=O)c2ccc([N+](=O)[O-])cn2)cc1
lower

Class (by measured inhibition) for CN(Cc1cnc2nc(N)nc(N)c2n1)c1ccc(C(=O)N[C@@H](CCC(=O)O)C(=O)O)cc1
middle

Class (by measured inhibition) for C#CC(=O)N(c1cc(OC)ccc1OC)C(C(=O)NC1CCCC1)c1cccs1 (stereo unspecified)
lower

Class (by measured inhibition) for c1ccc2c(-c3ccc4nncn4c3)cncc2c1
upper

Class (by measured inhibition) for Cc1cc(=O)oc2cc(NC(=O)COc3cccc(C(F)(F)F)c3)ccc12
lower

Recorded values, source PubChem BioAssay.
